Experiment: qHTS Assay for Rab9 Promoter Activators; further: nearly all actives have a fitted effect of over 60% in size; further: potency means the concentration at half of the fitted maximal effect
Settings: Huh7 Rab9 promoter-luciferase reporter, luminescence, 24 h; series mostly up to 9.22 µM
In all, about 320,000 compounds went through this assay and about 9,100 (2.8%) were called active. Inconclusive results (about 3%) are left out. Shown is part of a subset that was picked to be rich in actives.
experimental_endpoint: Potency

{"columns": ["compound", "Potency"],
 "data": [
  ["Nc1nc(SCC(=O)Nc2ccc(Cl)c([N+](=O)[O-])c2)n[nH]1", "inactive"],
  ["Cc1ccc(F)cc1NC(=O)CSCc1c(C)noc1C", "inactive"],
  ["CCN1/C(=C/C(=S)Nc2ccccc2)Sc2ccccc21", "2.82 µM (active)"],
  ["O=C(CCN1c2ccccc2Sc2ccccc21)Nc1ccccc1", "inactive"],
  ["Cc1ccc(C)c(NC(=O)COC(=O)CSc2ccccc2)c1", "inactive"],
  ["CO[C@H]1[C@@H]2C=CO[C@@H](O[C@H]3O[C@@H](CO)[C@H](O)[C@@H](O)[C@@H]3O)[C@@H]2[C@@]2(CO)O[C@@H]12", "inactive"]
]}

Ask | Param item = CN(C)S(=O)(=O)c1ccc2oc(SCC(=O)Nc3ccccc3F)nc2c1 ; retrieve measured Potency.
Reply | 1.41 µM (active)

Ask | Param item = O=C(c1ccc(F)cc1)N1CCCC(c2nc(-c3cccs3)no2)C1 (stereo not given) ; retrieve measured Potency.
Reply | inactive

Ask | Param item = COc1cccc(-c2noc(C3CCCN(C(=O)c4ccc(F)cc4)C3)n2)c1 (stereo not given) ; retrieve measured Potency.
Reply | inactive

Ask | Param item = CCN(C(=O)COC(=O)c1c(C)nn(-c2ccccc2)c1Cl)c1c(N)n(Cc2ccccc2)c(=O)[nH]c1=O ; retrieve measured Potency.
Reply | inactive

---

Assay: qHTS Assay for Rab9 Promoter Activators; further: nearly all actives have a fitted effect of over 60% in size
Settings: Huh7 Rab9 promoter-luciferase reporter, luminescence, 24 h; series mostly up to 9.22 µM
Screen size: about 320,000 compounds; about 9,100 (2.8%) were called active. About 3% were inconclusive and are not listed. Calls follow the shape of the dose curve; as a rule, active = well fitted activation curve with a large enough effect; inconclusive = small, poorly fitted or top-dose-only effect; inactive = no such curve, though single readings can be large or run the other way. Shown is part of a subset that was picked to be rich in actives.
The reply should name one outcome from class 1 (active), class 0 (inactive)

Ask | Answer briefly: the call reported for O=C(Nc1cccc(NC(=O)c2ccccc2[N+](=O)[O-])c1)c1ccccc1Cl in this assay.
Reply | class 0

Ask | Answer briefly: the call reported for O=C(COC(=O)Cn1[nH]c(=O)c2ccccc2c1=O)Nc1ncc(Cl)cc1Cl in this assay.
Reply | class 0

---

Assay: qHTS Assay for Rab9 Promoter Activators; further: nearly all actives have a fitted effect of over 60% in size
Details: Huh7 Rab9 promoter-luciferase reporter, luminescence, 24 h; series mostly up to 9.22 µM
Screen size: about 320,000 compounds; about 9,100 (2.8%) were called active. About 3% were inconclusive and are not listed. The call rests on the fitted dose curve; in most records, active means well fitted activation curve with a large enough effect; inconclusive means small, poorly fitted or top-dose-only effect; inactive means no such curve, though single readings can be large or run the other way. The sample holds actives, similar compounds and a random draw of the others, so the mix is not that of the screen.
The reply should name one outcome from T (active), F (inactive)

Worked examples follow.
{"columns": ["compound", "category"],
 "data": [
  ["O=C(Nc1ccc(F)cc1)c1cc2c(s1)CCCC2", "T"],
  ["CCOC(=O)N1CCN(C(=O)COC(=O)c2cccc(S(C)(=O)=O)c2)CC1", "F"],
  ["Cc1cc(C)nc(NC(=O)/C=C/c2ccc(Cl)cc2)n1", "F"]
]}

Ask | Answer briefly: the call reported for CCOc1ccc(C(C)NC(=O)CN2C(=O)NC3(CCCCC3)C2=O)cc1OCC (stereo unspecified) in this assay.
Reply | F

Ask | Answer briefly: the call reported for CCCCC[C@H]1CN(C2CCCCC2)C(=O)[C@@H]1CC(=O)NCc1ccc(OC)cc1 in this assay.
Reply | F

Ask | Answer briefly: the call reported for CC1CCCN(C(=O)c2cc(-c3ccco3)nc3ccccc23)C1 (stereo unspecified) in this assay.
Reply | F

Ask | Answer briefly: the call reported for O=C(Cn1nnc(-c2ccccc2)n1)NC(=O)NC1CCCC1 in this assay.
Reply | F

Ask | Answer briefly: the call reported for O=C(CC1SC(N2CCCC2)=NC1=O)Nc1ccc(C(=O)NCCc2ccc(F)cc2)cc1 (stereo unspecified) in this assay.
Reply | F

---

Assay: qHTS Assay for Rab9 Promoter Activators; further: nearly all actives have a fitted effect of over 60% in size
Conditions: Huh7 Rab9 promoter-luciferase reporter, luminescence, 24 h; series mostly up to 9.22 µM
Among all 320,000 compounds or so, about 9,100 (2.8%) were called active. Another 3% or so got no clear call; they are omitted. Calls come from the whole dose curve; as a rule, active = well fitted activation curve with a large enough effect; inconclusive = small, poorly fitted or top-dose-only effect; inactive = no such curve, though single readings can be large or run the other way. This excerpt belongs to a sample that is enriched for actives.
The reply should name one outcome from label 1 for active, label 0 for inactive

{"columns": ["molecule", "category"],
 "data": [
  ["O=C(Nc1ccc(Sc2ccc(Br)cc2)cc1)c1ccco1", "label 0"],
  ["CCC(=O)c1ccc(OCC(=O)Nc2ccc(N3CCCCC3)cc2)cc1", "label 0"]
]}

Ask | Answer briefly: the call reported for CCCn1nc(C(=O)OCc2nc(N)nc(Nc3ccccc3C)n2)c2ccccc2c1=O in this assay.
Reply | label 0

Ask | Answer briefly: the call reported for CC1CCN(C(=O)c2ccccc2NC(=O)Cc2ccccc2)CC1 in this assay.
Reply | label 0

Ask | Answer briefly: the call reported for CC1CCN(C(NC(=O)c2ccco2)C(=O)c2ccccc2)CC1 (stereo unspecified) in this assay.
Reply | label 0

Ask | Answer briefly: the call reported for CCC(=O)Nc1ccc(-c2ccc(N3CCCCC3)nn2)cc1 in this assay.
Reply | label 1

---

Experiment: qHTS Assay for Rab9 Promoter Activators; further: nearly all actives have a fitted effect of over 60% in size
Details: Huh7 Rab9 promoter-luciferase reporter, luminescence, 24 h; series mostly up to 9.22 µM
Screen size: about 320,000 compounds; about 9,100 (2.8%) were called active. Inconclusive results (about 3%) are left out. Calls come from the whole dose curve; as a rule, active = well fitted activation curve with a large enough effect; inconclusive = small, poorly fitted or top-dose-only effect; inactive = no such curve, though single readings can be large or run the other way. For the sample, actives were picked, then their nearest neighbours and some compounds at random.
The reply should name one outcome from active, inactive

{"columns": ["compound", "category"],
 "data": [
  ["COc1ccc(S(=O)(=O)N2CCC(C(=O)OCC(=O)c3ccccc3)CC2)cc1[N+](=O)[O-]", "inactive"],
  ["Cc1ccc(NC(=O)C(c2ccccc2)N2CCN(C(=O)c3ccco3)CC2)cc1 (stereo unspecified)", "inactive"],
  ["O=C(CCNC(=O)c1ccccc1)Nc1nc2ccccc2s1", "inactive"],
  ["COc1cccc(OCC(=O)Nc2ccccc2C(N)=O)c1", "active"],
  ["C=CCNC(=O)c1ccc(C)c(Br)c1", "inactive"],
  ["CC1CN/C(=C\\C(=O)c2ccc(Br)cc2)C(=O)N1 (stereo unspecified)", "active"],
  ["O=C(Nc1ccccc1N1CCN(C(=O)c2ccccc2)CC1)c1ccc2c(c1)OCO2", "inactive"],
  ["O=C(Nc1ccccc1F)c1ccc2c(c1)OCO2", "active"],
  ["COc1ccc(N2C(=O)CC(Nc3ccc(F)cc3)C2=O)c([N+](=O)[O-])c1 (stereo unspecified)", "inactive"],
  ["COc1ccc(NC(=O)CSc2nc3ccccc3c(=O)n2C)cc1", "inactive"]
]}

Ask | Answer briefly: the call reported for c1ccc(-n2nc3ccccc3n2)cc1 in this assay.
Reply | inactive

Ask | Answer briefly: the call reported for Cc1ccsc1C(=O)NC1CCCCC1C (stereo unspecified) in this assay.
Reply | inactive

Ask | Answer briefly: the call reported for Cc1cc(C)cc(NC(=O)C(c2ccccc2)N2CCN(CC(=O)N3CCCC3)CC2)c1 (stereo unspecified) in this assay.
Reply | inactive

Ask | Answer briefly: the call reported for Cc1ccc(Nc2ncnc3c2cnn3C)c(C)c1 in this assay.
Reply | inactive

Ask | Answer briefly: the call reported for O=C(CN1CCCCC1)NC(=O)Nc1ccccc1F in this assay.
Reply | inactive

Ask | Answer briefly: the call reported for Cc1ccc(C(=O)Cn2cc([N+](=O)[O-])nc2C)cc1 in this assay.
Reply | inactive

Ask | Answer briefly: the call reported for N#Cc1cccc(NC(=O)C2CCCN(C(=O)c3ccc(Cl)cc3)C2)c1 (stereo unspecified) in this assay.
Reply | inactive

Ask | Answer briefly: the call reported for Cc1ccn(-c2cccc(-n3ccc(C)n3)n2)n1 in this assay.
Reply | active

Ask | Answer briefly: the call reported for Cc1ccc(/C=C/C(=O)OCC(=O)NCc2ccc(Cl)cc2)o1 in this assay.
Reply | inactive

Ask | Answer briefly: the call reported for Cc1cc(N2CCOCC2)nc(-c2ccc(Br)cc2)n1 in this assay.
Reply | inactive

Ask | Answer briefly: the call reported for CSc1nnc2ccc(-c3ccc(C)cc3)nn12 in this assay.
Reply | inactive

Ask | Answer briefly: the call reported for O=C(Nc1ccc(S(=O)(=O)N2CCCCC2)cc1)C1CCN(C(=O)c2ccc(F)cc2)CC1 in this assay.
Reply | inactive

Ask | Answer briefly: the call reported for Cc1ccc(F)cc1NC(=O)c1ccc2c(c1)OCO2 in this assay.
Reply | inactive

Ask | Answer briefly: the call reported for Nc1ccc2nn(-c3ccc(Cl)cc3)nc2c1 in this assay.
Reply | active

Ask | Answer briefly: the call reported for Cc1cccc(-c2nc3ccc(C(=O)NCCN4CCN(C)CC4)cc3nc2-c2cccc(C)c2)c1 in this assay.
Reply | inactive

Ask | Answer briefly: the call reported for O=C(Nc1ccccc1N1CCOCC1)c1csc2c1CCCC2 in this assay.
Reply | inactive

Ask | Answer briefly: the call reported for CC(C)(CNC(=O)CNC(=O)C1CCCCC1)N1CCOCC1 in this assay.
Reply | inactive

Ask | Answer briefly: the call reported for COc1cc(NC(=O)c2ccc3c(c2)OCO3)ccc1NC(=O)c1cccs1 in this assay.
Reply | inactive

Ask | Answer briefly: the call reported for Cc1cccc(OCCC(=O)Nc2ccccc2C(N)=O)c1 in this assay.
Reply | inactive

Ask | Answer briefly: the call reported for COc1ccc(Nc2nc(-c3ccccc3)cs2)cc1 in this assay.
Reply | active

Ask | Answer briefly: the call reported for Cc1nc(-c2ccc([N+](=O)[O-])cc2)c(-c2ccccc2)o1 in this assay.
Reply | inactive

Ask | Answer briefly: the call reported for COc1ccc2nc(C)cc(Nc3cccc(C(=O)O)c3)c2c1 in this assay.
Reply | inactive

Ask | Answer briefly: the call reported for Cc1cc(C)c2nc(SCC(=O)N(C)C3CCS(=O)(=O)C3)cc(C)c2c1 (stereo unspecified) in this assay.
Reply | inactive

Ask | Answer briefly: the call reported for Cc1nn(CC(=O)Nc2nc3ccccc3s2)c(C)c1[N+](=O)[O-] in this assay.
Reply | inactive

Ask | Answer briefly: the call reported for CN(CC(=O)Nc1ccc(Cl)c(C(F)(F)F)c1)C(=O)CCC(=O)c1ccccc1 in this assay.
Reply | inactive
